Catalogue of Changes in heart rate when injected intravenously values
# run_parameters: dog, in vivo, iv, 1 mg/kg

Example entries and their recorded answers appear below.
INSERT INTO assay_data (compound, observed_measurement) VALUES
  ('CCCCOc1ccc(CN2CCc3ncccc3C2)cc1OCCCC', '0 Δ beats/min'),
  ('CCCOc1cc(CN2CCc3ncccc3C2)ccc1OC', '+24 Δ beats/min'),
  ('CNCCc1ccccn1 [betahistine, reference compound]', '+52 Δ beats/min');

Now for the compound whose Changes in heart rate when injected intravenously we want.
[in] What value of Changes in heart rate when injected intravenously has been reported for the following compound? CCCOc1ccc(CN2CCc3ncccc3C2)cc1OCCC
[out] +16 Δ beats/min

---

# protocol_summary: Acute toxicity (LD50) by intraperitoneal injection
# run_parameters: mouse, in vivo, ip; mice, intraperitoneal injection (Table 4)
reported_property: LD50

Some entries whose results are on file:
INSERT INTO measurements (smiles_structure, observed_measurement) VALUES
  ('CCCOc1cc(CN2CCc3ncccc3C2)ccc1OC', '174 mg/kg'),
  ('CC(C)c1cccc(CN2CCc3ncccc3C2)c1', '368 mg/kg'),
  ('CC(C)c1ccc(CN2CCc3ncccc3C2)cc1', '300 mg/kg'),
  ('CC(C)=CCC/C(C)=C/CN1CCc2ncccc2C1', '292 mg/kg'),
  ('Clc1ccc(C=CCN2CCc3ncccc3C2)c(Cl)c1', '220 mg/kg');

Now take the following compound into account.
[in] Data request, read-out LD50, for COc1ccc(CN2CCc3ncccc3C2)cc1OC
[out] 262 mg/kg

---

In this section, each of the molecules is paired with its reported change in vivo at 1 mg/kg.
# protocol_summary: Effects of intravenous injection on mean arterial pressure, heart rate and vertebral arterial flow in anesthetized dogs
# run_parameters: Canis lupus familiaris, iv, read-out: Percent increase in vertebral arterial flow when injected intravenously
Give a bare numeral; the unit % is implied.

Sample records with change in vivo at 1 mg/kg:
INSERT INTO results (smiles_structure, reported_property, observed_measurement) VALUES
  ('Clc1ccc(CN2CCc3ncccc3C2)cc1Cl', 'change in vivo at 1 mg/kg', 30.8),
  ('Clc1ccccc1C=CCN1CCc2ncccc2C1', 'change in vivo at 1 mg/kg', 29.2),
  ('CCCOc1ccc(CN2CCc3ncccc3C2)cc1OCCC', 'change in vivo at 1 mg/kg', 30.6);

[in] What does the record list as change in vivo at 1 mg/kg for Clc1ccc(CN2CCc3ncccc3C2)cc1 ?
[out] 30

Reference source for all entries: patent US4308273A
